B1: CPEB3 Ribozyme (parent)
chain: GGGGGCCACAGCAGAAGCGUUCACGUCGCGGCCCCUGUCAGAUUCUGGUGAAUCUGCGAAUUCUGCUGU

# Variants of: B1
# Experimental protocol: self-cleavage, relative activity (ratio to wild type); higher = more cleavage; co-transcriptional
Measured attribute: self-cleavage
Just the number, please, no unit after it.

Sequence chain: GGGGGCCACAGCAGAAGCGUUCACGUCGCGGUCCCUGUUAGAUUCUGGUGAAUCUGCGAAUUCUGCUGU [C32U C39U]
Val: 0.937

Entry GGGGGCCACAGCAGAAGCGUUCACGUCGCGGCCCCUGUCAGAUUCUGGUUAAUCUGCGAAAUCUGCUGU [G50U U61A] ; self-cleavage = 0.97

Entry GGGGGCCACAGCAGAAGCGUUCACGUCGCGGCCCCUGUCAGAUCCUGGUGAACCUGCGAAUUCUGCUGU [U44C U53C] ; self-cleavage = 0.647

Entry GGGGGCCACAGCAGAAGCGUUUACGUCGCGGCGCCUGUCAGAUUCUGGUGAAUCUGCGAAUUCUGCUGU [C22U C33G] ; self-cleavage = 0.18

Entry GGGGGCCACAGUAGAAGCGUUCACGUCGCGGCCGCUGUCAGAUUCUGGUGAAUCUGCGAAUUCUGCUGU [C12U C34G] ; self-cleavage = 0.734

Entry GGGGGCCACAGCAGAAGCGUUCACGUCGCGGCCCCUGUCAGAUUCUGCUGAAUCUGCGAAUGCUGCUGU [G48C U62G] ; self-cleavage = 0.913
